# Tested on: Escherichia coli TOP10
# Protocol Details: shrunken log2 fold change of peptide-encoding DNA abundance (4.5 h post-induction vs induction); higher = less antimicrobial activity (less host growth inhibition)
# Test Parameters: time post-induction: 4.5 h; library: site-saturation at positions 5, 18, 19, 20
Endpoint: shrunken log2 fold change

> print(dat)
              sequence.code  quantitative.result
 1  RRIRMRPPRLPRPRPRPKLPPRP                 1.13
 2  RRIRKRPPRLPRPRPRPASGPRP                0.591
 3  RRIRMRPPRLPRPRPRPFVPPRP               -0.375
 4  RRIRHRPPRLPRPRPRPLQWPRP               -0.127
 5  RRIRHRPPRLPRPRPRPGSPPRP               -0.171
 6  RRIRIRPPRLPRPRPRPQAYPRP               0.0364
 7  RRIRARPPRLPRPRPRPHNQPRP             -0.00392
 8  RRIRYRPPRLPRPRPRPRRAPRP                0.364
 9  RRIRFRPPRLPRPRPRPRDTPRP               0.0411
10  RRIRYRPPRLPRPRPRPKACPRP             -0.00227
11  RRIRERPPRLPRPRPRPPPFPRP                0.313
12  RRIRKRPPRLPRPRPRPTMWPRP                0.643
13  RRIRRRPPRLPRPRPRPMAKPRP                0.315
14  RRIRRRPPRLPRPRPRPTDQPRP                0.552
15  RRIRIRPPRLPRPRPRPVSTPRP               -0.342

###

# Tested on: Escherichia coli TOP10;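 further: peptides expressed intracellularly from a pBAD plasmid library in pooled LB shake-flask culture, induced with 0.3% L-arabinose, DNA abundance read by NGS, three biological replicates, DESeq2 with apeglm shrinkage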
# Protocol Details: shrunken log2 fold change of peptide-encoding DNA abundance (4.5 h post-induction vs induction); higher = less antimicrobial activity (less host growth inhibition)
# Test Parameters: time post-induction: 4.5 h; library: site-saturation at positions 5, 18, 19, 20
Endpoint: shrunken log2 fold change

> print(dat)
              sequence.code         target.of.assay  quantitative.result
 1  RRIRHRPPRLPRPRPRPIFVPRP  Escherichia coli TOP10               -0.358
 2  RRIRERPPRLPRPRPRPKNHPRP  Escherichia coli TOP10               -0.499
 3  RRIRNRPPRLPRPRPRPPAIPRP  Escherichia coli TOP10                0.276
 4  RRIRLRPPRLPRPRPRPMSEPRP  Escherichia coli TOP10              -0.0383
 5  RRIRLRPPRLPRPRPRPDQKPRP  Escherichia coli TOP10               0.0416
 6  RRIRDRPPRLPRPRPRPTFLPRP  Escherichia coli TOP10                0.196
 7  RRIRGRPPRLPRPRPRPEDFPRP  Escherichia coli TOP10                0.149
 8  RRIRERPPRLPRPRPRPTNIPRP  Escherichia coli TOP10               -0.905
 9  RRIRKRPPRLPRPRPRPSSHPRP  Escherichia coli TOP10               -0.163
10  RRIRFRPPRLPRPRPRPICDPRP  Escherichia coli TOP10               0.0526
11  RRIRERPPRLPRPRPRPIYQPRP  Escherichia coli TOP10               -0.394
12  RRIRPRPPRLPRPRPRPYVMPRP  Escherichia coli TOP10               -0.706
13  RRIRTRPPRLPRPRPRPKFTPRP  Escherichia coli TOP10              -0.0912
14  RRIRWRPPRLPRPRPRPPNVPRP  Escherichia coli TOP10               0.0153
15  RRIRIRPPRLPRPRPRPHIVPRP  Escherichia coli TOP10              -0.0875
